# tested_target: T1, human TREM2 (human, UniProt Q9NZC2 19-174, limits assumed)
# T1 sequence: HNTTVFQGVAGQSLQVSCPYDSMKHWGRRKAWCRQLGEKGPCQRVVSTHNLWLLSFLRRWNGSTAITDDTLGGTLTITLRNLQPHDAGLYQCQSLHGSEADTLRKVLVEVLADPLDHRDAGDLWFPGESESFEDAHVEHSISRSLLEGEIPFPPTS
# test_summary: yeast-displayed Fab FACS, 2nd screen 100 nM

binder: V47 (Fab, V domains shown) VH: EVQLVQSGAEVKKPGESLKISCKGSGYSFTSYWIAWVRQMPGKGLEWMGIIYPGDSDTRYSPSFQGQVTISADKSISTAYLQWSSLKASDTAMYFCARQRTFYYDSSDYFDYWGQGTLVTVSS VL: DIQMTQSPSSVSASVGDRVTITCRASQGISSWLAWYQQKPGKAPKLLIYAASSLQNGVPSRFSGSGSGTDFTLTISSLQPEDFATYFCQQADSFPMTFGQGTKLEIK
binding signal fold over 6E7 parental / fold: 0.47

binder: V42 (Fab, V domains shown) VH: EVQLVQSGAEVKKPGESLKISCKGSGYSFTSAWIAWVRQMPGKGLEWMGIIYPGDSDTRYSPSFQGQVTISADKSISTAYLQWSSLKASDTAMYFCARQRTFYYDSSDYFDYWGQGTLVTVSS VL: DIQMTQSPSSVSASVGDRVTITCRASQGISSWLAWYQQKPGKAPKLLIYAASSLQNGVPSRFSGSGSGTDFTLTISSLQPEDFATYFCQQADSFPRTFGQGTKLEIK
binding signal fold over 6E7 parental / fold: 0.41

binder: V82 (Fab, V domains shown) VH: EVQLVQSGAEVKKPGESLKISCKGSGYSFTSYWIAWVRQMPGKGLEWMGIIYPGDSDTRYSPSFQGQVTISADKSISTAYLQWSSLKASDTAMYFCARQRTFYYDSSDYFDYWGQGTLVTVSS VL: DIQMTQSPSSVSASVGDRVTITCRASQGISSWLAWYQQKPGKAPKLLIYAGSSLQNGVPSRFSGSGSGTDFTLTISSLQPEDFATYFCQQADSFPRTFGQGTKLEIK
binding signal fold over 6E7 parental / fold: 0.79
